Recorded values, source paper PMC3043298.

experiment: in vivo; conditions: both, New Zealand albino, rabbit, topical or ocular
measurement_type: Tmax (min)
Numbers only, in min.

Examples with their reported Tmax follow.
>>> df
                                   molecule  units_label  result_value
0  C[C@@H]1CN(c2c(F)c(N)c3c(=O)c(C(=O)O)cn(C4CC4)c3c2F)C[C@H](C)N1          min            30
1  CCn1cc(C(=O)O)c(=O)c2cc(F)c(N3CCNCC3)cc21          min            60

State, in one line, measured Tmax of COc1c(N2CCNC(C)C2)c(F)cc2c(=O)c(C(=O)O)cn(C3CC3)c12 (stereo not drawn)
30

* * *

Assay: in vivo
Conditions: both, New Zealand albino, rabbit, 30 min
Protocol: In both groups, individual fluoroquinolones were dissolved at concentration of 0.1%. Thus, the total fluoroquinolones concentration in group A and group B were 0.4% and 0.5%, respectively. […] The sterile cocktail formulations of group A and group B were individually instilled (50 μL) on the lower fornix of rabbit eyes (n = 4) with the help of a calibrated micropipette. […] The aqueous humor samples obtained were stored at −80°C until quantification by HPLC. […]
Structures can show the parent of a compound that is named as a salt.
measurement_type: logPC (30 min)
Give bare numbers.

Some compounds with known logPC (30 min) results, for comparison:
                                   compound  measurement_type  result_value
0  C[C@@H]1CN(c2c(F)c(N)c3c(=O)c(C(=O)O)cn(C4CC4)c3c2F)C[C@H](C)N1    logPC (30 min)        −4.753
1  COc1c(N2CCNC(C)C2)c(F)cc2c(=O)c(C(=O)O)cn(C3CC3)c12 (stereo not shown)    logPC (30 min)        −5.006
2  CCn1cc(C(=O)O)c(=O)c2cc(F)c(N3CCNC(C)C3)c(F)c21 (stereo not shown) [Lomefloxacin HCl, Lomefloxacin]    logPC (30 min)        −5.519

Now turn to the next compound.
Using known records, supply logPC (30 min) for `CCn1cc(C(=O)O)c(=O)c2cc(F)c(N3CCNCC3)cc21`
−5.051

* * *

experiment: in vivo; conditions: both, New Zealand albino, rabbit, topical or ocular
Structures can show the parent of a compound that is named as a salt.
Use 2000 ng·h/mL as the dividing line for AUC, with the line itself on the 1 side and lower values as -1.

                                   compound  category
0  COc1c(N2CCNC(C)C2)c(F)cc2c(=O)c(C(=O)O)cn(C3CC3)c12 (centres unmarked)        -1
1  CCn1cc(C(=O)O)c(=O)c2cc(F)c(N3CCNCC3)cc21         1
2  C[C@@H]1CN(c2c(F)c(N)c3c(=O)c(C(=O)O)cn(C4CC4)c3c2F)C[C@H](C)N1        -1
3  COc1c(N2C[C@@H]3CCCN[C@@H]3C2)c(F)cc2c(=O)c(C(=O)O)cn(C3CC3)c12        -1

Entry CCn1cc(C(=O)O)c(=O)c2cc(F)c(N3CCNC(C)C3)c(F)c21 (centres unmarked) [Lomefloxacin HCl, Lomefloxacin] : is its AUC no less than 2000 ng·h/mL?
-1

* * *

experiment: in vivo; details: both, New Zealand albino, rabbit, 240 min
Structures can show the parent of a compound that is named as a salt.
Record form. Attribute: logPC (240 min). Fill in for each entry.
Give bare numbers.

For each entry beneath this line, provide reported logPC (240 min).
1. COc1c(N2CCNC(C)C2)c(F)cc2c(=O)c(C(=O)O)cn(C3CC3)c12 (stereo not shown)
2. CCn1cc(C(=O)O)c(=O)c2cc(F)c(N3CCNCC3)cc21
3. CCn1cc(C(=O)O)c(=O)c2cc(F)c(N3CCNC(C)C3)c(F)c21 (stereo not shown) [Lomefloxacin HCl, Lomefloxacin]
4. C[C@@H]1CN(c2c(F)c(N)c3c(=O)c(C(=O)O)cn(C4CC4)c3c2F)C[C@H](C)N1

1. −6.628
2. −6.382
3. −6.859
4. −6.396

* * *

assay: in vivo; conditions: both, New Zealand albino, rabbit, topical or ocular
Counter-ions that a name gives are not always drawn.
measurement_type: Tmax (h)
Give bare numbers, in h.

>>> df
                                   compound  units_label  result_value
0  COc1c(N2C[C@@H]3CCCN[C@@H]3C2)c(F)cc2c(=O)c(C(=O)O)cn(C3CC3)c12            h           0.5
1  CC1COc2c(N3CCN(C)CC3)c(F)cc3c(=O)c(C(=O)O)cn1c23 (stereo not shown)            h             1
2  C[C@H]1COc2c(N3CCN(C)CC3)c(F)cc3c(=O)c(C(=O)O)cn1c23            h             1

With those in mind, consider the next compound.
For the compound CCn1cc(C(=O)O)c(=O)c2cc(F)c(N3CCNC(C)C3)c(F)c21 (stereo not shown) [Lomefloxacin HCl, Lomefloxacin] , give its reported Tmax.
1

* * *

experiment: Experimentally derived Δlog P by shake flask method (OECD No. 107 and 117); type: physicochemical; details: difference of log P(o/w) and log P(cyclohexane/water)
Where a name gives a salt, the structure may show the parent alone.
measurement_type: ΔlogP (Cyclohexane-Octanol)
One number for each entry.

Example results:
>>> print(df.to_string())
                                   compound             measurement_type  result_value
0  C[C@H]1COc2c(N3CCN(C)CC3)c(F)cc3c(=O)c(C(=O)O)cn1c23 [Levofloxacin]  ΔlogP (Cyclohexane-Octanol)         0.734
1  CC1COc2c(N3CCN(C)CC3)c(F)cc3c(=O)c(C(=O)O)cn1c23 (stereo not drawn) [Ofloxacin]  ΔlogP (Cyclohexane-Octanol)         0.759
2  COc1c(N2CCNC(C)C2)c(F)cc2c(=O)c(C(=O)O)cn(C3CC3)c12 (stereo not drawn) [Gatifloxacin]  ΔlogP (Cyclohexane-Octanol)         0.526
3  CCn1cc(C(=O)O)c(=O)c2cc(F)c(N3CCNCC3)cc21 [Norfloxacin]  ΔlogP (Cyclohexane-Octanol)         0.051
4  C[C@@H]1CN(c2c(F)c(N)c3c(=O)c(C(=O)O)cn(C4CC4)c3c2F)C[C@H](C)N1 [Sparfloxacin]  ΔlogP (Cyclohexane-Octanol)         1.025

Retrieve ΔlogP (Cyclohexane-Octanol) measured for CCn1cc(C(=O)O)c(=O)c2cc(F)c(N3CCNC(C)C3)c(F)c21 (stereo not drawn) [Lomefloxacin HCl, Lomefloxacin] and print it.
1.113

* * *

experiment: in vivo; details: both, New Zealand albino, rabbit, topical or ocular
Structures can show the parent of a compound that is named as a salt.
measurement_type: Cmax
Write the numeric value and follow it with the unit.

Use these answered entries as a reference point.
                                   compound  measurement_type  result_value
0  CCn1cc(C(=O)O)c(=O)c2cc(F)c(N3CCNCC3)cc21 [Norfloxacin]              Cmax     456 ng/mL
1  C[C@@H]1CN(c2c(F)c(N)c3c(=O)c(C(=O)O)cn(C4CC4)c3c2F)C[C@H](C)N1 [Sparfloxacin]              Cmax    1150 ng/mL
2  COc1c(N2CCNC(C)C2)c(F)cc2c(=O)c(C(=O)O)cn(C3CC3)c12 (centres unmarked) [Gatifloxacin]              Cmax     682 ng/mL
3  COc1c(N2C[C@@H]3CCCN[C@@H]3C2)c(F)cc2c(=O)c(C(=O)O)cn(C3CC3)c12 [Moxifloxacin]              Cmax     594 ng/mL

API: the following record is the query input.
Quote Cmax reported for CCn1cc(C(=O)O)c(=O)c2cc(F)c(N3CCNC(C)C3)c(F)c21 (centres unmarked) [Lomefloxacin HCl, Lomefloxacin] please.
266 ng/mL
